Reference source for all entries: patent US20230303552A1

studySystem: UniProt:P08912
Sequence (P08912 1-532): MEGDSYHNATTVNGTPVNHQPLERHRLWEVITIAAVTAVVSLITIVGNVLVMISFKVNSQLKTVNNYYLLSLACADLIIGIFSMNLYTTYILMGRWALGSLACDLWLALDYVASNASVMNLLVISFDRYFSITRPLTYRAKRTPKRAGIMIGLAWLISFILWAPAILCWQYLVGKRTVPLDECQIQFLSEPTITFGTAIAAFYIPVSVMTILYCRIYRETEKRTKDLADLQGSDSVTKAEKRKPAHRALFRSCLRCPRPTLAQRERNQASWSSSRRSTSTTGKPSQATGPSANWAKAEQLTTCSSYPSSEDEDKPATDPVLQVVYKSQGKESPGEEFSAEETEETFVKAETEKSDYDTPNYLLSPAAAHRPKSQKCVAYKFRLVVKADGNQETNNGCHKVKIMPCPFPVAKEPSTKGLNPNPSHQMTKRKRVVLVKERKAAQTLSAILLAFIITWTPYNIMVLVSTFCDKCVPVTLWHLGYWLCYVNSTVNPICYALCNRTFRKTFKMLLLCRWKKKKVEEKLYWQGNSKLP
testMethodNotes: Cell-based functional calcium mobilization assay of mAChR M5 activity (inhibition of EC80 acetylcholine response) in CHO cells
measurementParameters: CHO cells stably expressing hM5; calcium flux (Fluo-4), EC80 acetylcholine addition
pIC50: −log10 of the molar value.
propertyLabel: pIC50

Given "O=C(Nc1ccc2cccnc2c1)C1CCN(S(=O)(=O)c2ccc3c(c2)CCO3)CC1" , state its recorded pIC50. 5.74

Tell me the measured pIC50 of "Cn1cnc(S(=O)(=O)N2CCC(C(=O)Nc3ccc4scnc4c3)CC2)c1" , please. < 5.00

What value of pIC50 has been recorded for this entry: "O=C(Nc1ccc2scnc2c1)C1CCN(S(=O)(=O)c2ccc(Cl)cc2)CC1" < 5.00

Give the measured pIC50 of "O=C(Nc1cnc2scnc2c1)C1CCN(S(=O)(=O)c2ccc3c(c2)CCO3)CC1" . < 5.00

What value of measured pIC50 is listed for "Cc1nn(C)cc1S(=O)(=O)N1CCC(C)(C(=O)Nc2ccc3scnc3c2)CC1" ? < 5.00

What value of pIC50 has been recorded for this entry: Cc1nn(C)cc1S(=O)(=O)N1CCC(C(=O)Nc2ccc3scnc3c2)C(C)(C)C1 (centres unmarked) < 5.00

Find the recorded pIC50 belonging to "COc1ccc(S(=O)(=O)N2CCC(C(=O)Nc3ccc4scnc4c3)CC2)c(C)c1" and report it. < 5.00

Looking for the measured pIC50 of "Cn1cnc2cc(S(=O)(=O)N3CCC(C(=O)Nc4ccc5scnc5c4)CC3)ccc21" , can you help? < 5.00

###

studySystem: human M5 receptors (hM5) (Homo sapiens, UniProt P08912)
Construct: expressed in transfected cells
testMethodNotes: Cell-based functional calcium mobilization assay of mAChR M5 activity (inhibition of EC80 acetylcholine response) in CHO cells
measurementParameters: CHO cells stably expressing hM5; minimum of EC80 acetylcholine response, normalized to maximum acetylcholine response
I'd be grateful if you could share measured EC80 MIN for these entries.
Express your answer in %, writing the number without its unit.

If you can, please state the reported EC80 MIN value of C[C@@H]1CN(S(=O)(=O)c2cccc3nsnc23)CC[C@@H]1C(=O)Nc1ccc2scnc2c1 (racemic) . 3

State the recorded EC80 MIN for this entry: CC1COc2ccc(S(=O)(=O)N3CC[C@@H](C(=O)Nc4ccc5scnc5c4)C3)cc21 (mixture of isomers) 2

Endpoint output: EC80 MIN of C[C@@H]1CN(S(=O)(=O)c2ccc(Cl)nc2)CC[C@@H]1C(=O)Nc1ccc2scnc2c1 (racemic) . Value? 4

Can you look up the measured EC80 MIN of C[C@@H]1CN(S(=O)(=O)c2ccc3c(c2)CCO3)CC[C@@H]1C(=O)Nc1ccc2scnc2c1 (racemic) for me? 4

Param item = "O=C(Nc1ccc2scnc2c1)C1CCN(S(=O)(=O)c2ccc(C(F)(F)F)nc2)CC1" ; retrieve measured EC80 MIN. 52

// returns reported EC80 MIN for input "O=C(Nc1ccc2scnc2c1)C1(F)CCN(S(=O)(=O)c2cccc3nsnc23)CC1" 51

# input compound: "O=C(Nc1ccc2scnc2c1)C1CCN(S(=O)(=O)c2ccccc2C(F)(F)F)CC1" ; wanted: its EC80 MIN 2

###

studySystem: human M5 receptors (hM5) (Homo sapiens, UniProt P08912)
testMethodNotes: Cell-based functional calcium mobilization assay of mAChR M5 activity (inhibition of EC80 acetylcholine response) in CHO cells
measurementParameters: CHO cells stably expressing hM5; calcium flux (Fluo-4), EC80 acetylcholine addition
Could you please report measured IC50 for the items listed next?

I'm curious: which IC50 was measured for O=C(Nc1ccc2scnc2c1)C1CCN(S(=O)(=O)c2ccccn2)CC1 [Compound 68] tested on human M5 receptors (hM5) (Homo sapiens, UniProt P08912)? > 10000 nM

Can you look up IC50 on human M5 receptors (hM5) (Homo sapiens, UniProt P08912) for Cn1ncc(S(=O)(=O)N2CC[C@H](C(=O)Nc3ccc4scnc4c3)[C@@H](F)C2)c1Cl (racemic) [Compound 159] ? 10 nM

State its IC50 on human M5 receptors (hM5) (Homo sapiens, UniProt P08912): Cc1cc2c(cc1S(=O)(=O)N1CCC(C(=O)Nc3ccc4scnc4c3)CC1)C(C)CO2 (racemic) [Compound 145] 1370 nM

Lab note: need IC50 for O=C(Nc1ccc2scnc2c1)[C@@H]1CCN(S(=O)(=O)c2ccc3ncsc3c2)C1 [Compound 136] on human M5 receptors (hM5) (Homo sapiens, UniProt P08912), anyone have it? 290 nM

Notebook: pull reported IC50 for human M5 receptors (hM5) (Homo sapiens, UniProt P08912), entry CN(C(=O)C1CCN(S(=O)(=O)c2ccc3c(c2)CCO3)CC1)c1ccc2scnc2c1 [Compound 84] > 10000 nM

// fetch human M5 receptors (hM5) (Homo sapiens, UniProt P08912) IC50 for COc1ccc(S(=O)(=O)N2CCC(C(=O)Nc3ccc4scnc4c3)CC2)cn1 [Compound 10] 1320 nM

Lab request: please report IC50 under test system human M5 receptors (hM5) (Homo sapiens, UniProt P08912) for O=C(Nc1ccc2scnc2c1)C1CCN(S(=O)(=O)c2cccc(OC(F)(F)F)c2)CC1 [Compound 30] > 10000 nM

human M5 receptors (hM5) (Homo sapiens, UniProt P08912) / IC50 / O=C(Nc1ccc2scnc2c1)[C@H]1CCN(S(=O)(=O)c2cccnc2)C[C@H]1F (racemic) [Compound 72] : value? > 10000 nM

Give the reported IC50 for O=C(Nc1ccc2scnc2c1)[C@@H]1CCN(S(=O)(=O)c2ccc3c(c2)CCC3)C1 [Compound 150] (system: human M5 receptors (hM5) (Homo sapiens, UniProt P08912)). > 10000 nM

Value wanted: IC50 (human M5 receptors (hM5) (Homo sapiens, UniProt P08912)) of entry CC1Cc2cc(S(=O)(=O)N3CCC(C(=O)Nc4ccc5scnc5c4)CC3)ccc2O1 (racemic) [Compound 87] > 10000 nM

Form field: IC50 recorded for CC1(C)COc2ccc(S(=O)(=O)N3CC4CC4(C(=O)Nc4ccc5scnc5c4)C3)cc21 (racemic) [Compound 130] with human M5 receptors (hM5) (Homo sapiens, UniProt P08912) (enter value) > 10000 nM

Lab note: need IC50 for O=C(Nc1ccc2scnc2c1)C1CCN(S(=O)(=O)c2ccc(Cl)nc2)CC1 [Compound 7] on human M5 receptors (hM5) (Homo sapiens, UniProt P08912), anyone have it? 184 nM

Short answer please: IC50, human M5 receptors (hM5) (Homo sapiens, UniProt P08912), entry O=C(Nc1ccc2scnc2c1)C1CCN(S(=O)(=O)c2cccnc2)CC1 [Compound 18] 56 nM

Notebook entry, human M5 receptors (hM5) (Homo sapiens, UniProt P08912) assay: IC50 of Cc1nn(C)cc1S(=O)(=O)N1CCC(C(=O)Nc2ccc3scnc3c2)CC1 [Compound 5] = ? 304 nM

Enter reported IC50 observed with human M5 receptors (hM5) (Homo sapiens, UniProt P08912) for O=C(Nc1ccc2scnc2c1)[C@@H]1CCN(S(=O)(=O)c2ccc(Br)c3c2OCC3)C1 [Compound 60] > 10000 nM

// map COc1ccccc1S(=O)(=O)N1CCC(C(=O)Nc2ccc3scnc3c2)CC1 [Compound 52] to recorded IC50 (system: human M5 receptors (hM5) (Homo sapiens, UniProt P08912)) > 10000 nM

API: value(readout=IC50, system=human M5 receptors (hM5) (Homo sapiens, UniProt P08912)) for record O=C(Nc1ccc2scnc2c1)C1CCN(S(=O)(=O)c2cccc(C(F)(F)F)c2)CC1 [Compound 54] > 10000 nM

Give human M5 receptors (hM5) (Homo sapiens, UniProt P08912) IC50 for O=C(Nc1ccc2scnc2c1)C1CCN(S(=O)(=O)c2ccc3ncccc3c2)CC1 [Compound 4] 959 nM

Could you share what IC50 was measured for CC1(C(=O)Nc2ccc3scnc3c2)CCN(S(=O)(=O)c2ccc(Cl)nc2)CC1 [Compound 106] , tested on human M5 receptors (hM5) (Homo sapiens, UniProt P08912)? > 10000 nM

Hello, I am looking for reported IC50 with human M5 receptors (hM5) (Homo sapiens, UniProt P08912) for O=C(Nc1cnc2cc[nH]c2c1)C1CCN(S(=O)(=O)c2ccc3c(c2)CCO3)CC1 [Compound 89] . Could you help? > 10000 nM

Record lookup: for human M5 receptors (hM5) (Homo sapiens, UniProt P08912), what IC50 belongs to O=C(Nc1ccc2scnc2c1)[C@H]1CCN(S(=O)(=O)c2ccc3ncsc3c2)C[C@H]1F (racemic) [Compound 70] ? > 10000 nM

Lab request: please report IC50 under test system human M5 receptors (hM5) (Homo sapiens, UniProt P08912) for O=C(Nc1ccc2scnc2c1)C1CCN(S(=O)(=O)c2cccnc2)C1 (racemic) [Compound 38] > 10000 nM

Report IC50 for Cc1noc2ncc(S(=O)(=O)N3CCC(C(=O)Nc4ccc5scnc5c4)CC3)cc12 [Compound 37] tested on human M5 receptors (hM5) (Homo sapiens, UniProt P08912). > 10000 nM
